meta.source: the supplement of paper PMC4466140

# tested.on: SpAbp1-D1
# protocol.summary: SPOT peptide array binding signal intensity (averaged, normalized) (arbitrary units (background-subtracted, floor 0; scale differs between SH3 domains)); higher = stronger binding of the SH3 domain to the peptide
We'd kindly ask you to apply these SPOT peptide array binding signal intensity classes: range A = under 90, range B = from 90 up to 400, range C = 400 and over

>  <binder>
KWVRRPKLMTPLTFS

>  <qualitative.label>
range B

$$$$
>  <binder>
RAPPPVPKKPSSRIA

>  <qualitative.label>
range C

$$$$
>  <binder>
QFDLKMPSKPIHNLK

>  <qualitative.label>
range A

$$$$
>  <binder>
AHFQPQRTAPKPPIS

>  <qualitative.label>
range A

$$$$
>  <binder>
NVLRKILEIPLHSFS

>  <qualitative.label>
range A

$$$$
>  <binder>
NHSRSLFSLPGNQQS

>  <qualitative.label>
range B

$$$$
>  <binder>
GDHPKGPPPPPPPDE

>  <qualitative.label>
range A

$$$$
>  <binder>
SHRLWLYAAPKRPKT

>  <qualitative.label>
range A

$$$$
>  <binder>
RRRRRPHRIERPLSN

>  <qualitative.label>
range B

$$$$
>  <binder>
NMLKKKPLKKPLKRF

>  <qualitative.label>
range C

$$$$
>  <binder>
MAMRPIPPLPTESEY

>  <qualitative.label>
range A

$$$$
>  <binder>
QPWTDQFEKLEKEVS

>  <qualitative.label>
range A

$$$$
